- System: NCI-H522 lung
- experimentDescription: NCI tumour cell line growth inhibition, 48 h
Task for the reader: assign each of the following molecules its reported TGI.
Record the value in µM, omitting the unit from your answer.

Could you share which TGI value was measured for Brc1ccc(C2SCc3nc4ccccc4n32)cc1 (stereo unspecified) ?
12.4

One more molecule: CCN1C(=O)N(CC)C2C1NN=c1s/c(=C\c3cccc([N+](=O)[O-])c3)c(=O)n12 (stereo unspecified)
3.4

What do you get for CC1(C)CC(=O)c2c(ccc(C(=O)C[C@@H](N)CO)c2N)O1 ?
15.3

How about this molecule: Cn1c(=O)c2nc(NCCO)cnc2n(C)c1=O
46.4

Also O=C1c2c(c3c4ccccc4[nH]c3c3[nH]c4ccccc4c23)C(=O)N1Cc1ccccc1 , if possible.
4.72
